# Lookup of reported inhibition at 500 µM keyed by entry
# target under test: BtGST2 (Bemisia tabaci, UniProt A0A9P0F9D9)
# Construct: gene BEMITA_LOCUS12014
# Sequence (A0A9P0F9D9 1-204): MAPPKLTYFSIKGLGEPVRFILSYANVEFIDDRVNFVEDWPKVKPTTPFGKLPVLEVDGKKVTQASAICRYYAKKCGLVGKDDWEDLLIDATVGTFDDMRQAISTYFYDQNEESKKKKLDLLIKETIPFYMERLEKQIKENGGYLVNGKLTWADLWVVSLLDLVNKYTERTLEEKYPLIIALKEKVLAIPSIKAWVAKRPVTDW
# assay summary: inhibition of CDNB/GSH conjugation, absorbance at […] nm
# Format: biochemical
# measurement conditions: read-out: % inhibition at 0.5 mM
# do not omit the unit; it follows the number

[[record]]
compound = "OCc1c[nH]c2ccccc12 [I3C]"
target_under_test = "BtGST2 (Bemisia tabaci, UniProt A0A9P0F9D9)"
result = "20.9%"

[[record]]
compound = "O=c1cc(-c2ccccc2)oc2ccccc12 [Flavone, 2-phenyl chromone]"
target_under_test = "BtGST2 (Bemisia tabaci, UniProt A0A9P0F9D9)"
result = "67.3%"

[[record]]
compound = "CN1CCC[C@H]1c1cccnc1 [Nicotine]"
target_under_test = "BtGST2 (Bemisia tabaci, UniProt A0A9P0F9D9)"
result = "6.64%"

[[record]]
compound = "O=c1c(O)c(-c2ccc(O)c(O)c2)oc2cc(O)cc(O)c12 [Quercetin hydrate]"
target_under_test = "BtGST2 (Bemisia tabaci, UniProt A0A9P0F9D9)"
result = "97.6%"


Then this compound:
Task item: Reported inhibition at 500 µM for C=CCN=C=S [AITC] : what is it?
Reply: 40.9%
